Molecular target: Mu opioid receptor (MOR)
Sequence (P35372 whole entry): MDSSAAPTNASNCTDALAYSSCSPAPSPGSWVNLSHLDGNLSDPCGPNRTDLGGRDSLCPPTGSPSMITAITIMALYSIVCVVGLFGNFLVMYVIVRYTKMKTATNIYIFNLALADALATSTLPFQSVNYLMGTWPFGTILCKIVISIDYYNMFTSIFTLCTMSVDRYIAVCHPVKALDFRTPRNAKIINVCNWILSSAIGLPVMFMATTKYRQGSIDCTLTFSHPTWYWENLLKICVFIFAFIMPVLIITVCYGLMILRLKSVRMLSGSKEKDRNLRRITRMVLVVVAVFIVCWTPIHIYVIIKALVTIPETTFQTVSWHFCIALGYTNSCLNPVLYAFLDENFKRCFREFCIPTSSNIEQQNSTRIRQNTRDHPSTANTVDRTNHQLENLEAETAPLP
Experiment: cell-based or functional assay
Square brackets hold non-standard residues; d marks the D form. Phe(4-NO2) = N[C@@H](Cc1ccc([N+](=O)[O-])cc1)C(=O)O; Phe(4-Cl) = N[C@@H](Cc1ccc(Cl)cc1)C(=O)O; Sar = CNCC(=O)O
The label is Criterion met for cAMP assay (ALPHAScreen), result at 10 µM peptide below 2 and Criterion not met for cAMP assay (ALPHAScreen), result at 10 µM peptide equal to or exceeding 2.

H-Y[Sar]FLR[dR]-NH2 [SEQ ID NO. 3: NH2-Tyr-Sar-Phe-Leu-Arg-DArg-NH2] | Criterion not met
H-Y[Sar][Phe(4-NO2)]L[dK][dR]-NH2 [SEQ ID NO. 10: NH2-Tyr-Sar-(4-NO2)Phe-Leu-DLys-DArg-NH2] | Criterion met

Q: Lab note: cAMP assay (ALPHAScreen), result at 10 µM peptide threshold 2. Does this binder come in strictly under it? H-Y[Sar][Phe(4-NO2)]L[dR]R-NH2 [SEQ ID NO. 5: NH2-Tyr-Sar-(4-NO2)Phe-Leu-DArg-Arg-NH2]
Result: Criterion not met

Q: Lab note: cAMP assay (ALPHAScreen), result at 10 µM peptide threshold 2. Does this binder come in strictly under it? H-Y[Sar]FLRR-NH2 [SEQ ID NO. 2: NH2-Tyr-Sar-Phe-Leu-Arg-Arg-NH2]
Result: Criterion not met

Q: Lab note: cAMP assay (ALPHAScreen), result at 10 µM peptide threshold 2. Does this binder come in strictly under it? H-Y[Sar]FL[dR]R-NH2 [SEQ ID NO. 6: NH2-Tyr-Sar-Phe-Leu-DArg-Arg-NH2]
Result: Criterion not met

Q: Lab note: cAMP assay (ALPHAScreen), result at 10 µM peptide threshold 2. Does this binder come in strictly under it? H-Y[Sar][Phe(4-Cl)]LR[dR]-NH2 [SEQ ID NO. 11: NH2-Tyr-Sar-(4-Cl)Phe-Leu-Arg-DArg-NH2]
Result: Criterion met
